Tested on: Rat fibroblasts (CREF)
Assay: Peg3 promoter luciferase inhibitors, potency, dose response, cell-based, HeLa, CREF/GAPDH counter-screen panel (AID 624167)
Settings: CREF/GAPDH counter-screens, run 2, dose range 1, individual replicate IC50 per panel
metric: IC50

molecule	endpoint-value
CC(=O)OC1(C)CC(C)C(=O)C(C(O)CC2CC(=O)NC(=O)C2)C1 (centres undefined)	< 0.2 µM
Cc1ccc(/C=C2\SC(=S)N(CCCC(=O)NNC(=O)c3ccccc3O)C2=O)cc1	> 100 µM
O=C(O)c1ccc(N/N=C/c2ccc3nccnc3c2)cc1	> 100 µM
CN(C(=O)COC(=O)/C=C/c1cccc([N+](=O)[O-])c1)C1CCS(=O)(=O)C1 (centres undefined)	> 100 µM
CCCC(=O)NC(c1ccc(C(C)C)cc1)c1ccc2cccnc2c1O (centres undefined)	> 100 µM
CS(=O)(=O)Nc1cccc(NC(=O)C2Cc3c(-c4ccccc4)ccnc3O2)c1 (centres undefined)	> 100 µM
Cc1ccc(OCC(=O)c2cc(C)n(Cc3ccco3)c2C)c([N+](=O)[O-])n1	> 100 µM
Cc1cc(C(=O)Nc2cccc(C(=O)O)c2)oc1C	> 100 µM
CC(C)(C)c1ccc(Oc2ccc(N)cc2)cc1	> 100 µM
COc1cc2nc(CN3CC=C(c4ccccc4)CC3)[nH]c(=O)c2cc1OC	> 100 µM
C=CCc1cccc(/C=N/NC(=O)C(C)Nc2cccc(C)c2)c1O (centres undefined)	> 100 µM
Cc1cccc(C)c1NC(=O)c1nc(S(=O)(=O)Cc2ccccc2)ncc1Cl	16.1 µM
COc1cc(NS(C)(=O)=O)ccc1Nc1c2ccccc2nc2ccccc12	1.33 µM
Oc1[nH]c2ccc(Br)cc2c1N=NC(=S)N1CCOCC1	0.611 µM

* * *

Tested on: PEG-3
Assay: Peg3 promoter luciferase inhibitors, potency, dose response, cell-based, HeLa, CREF/GAPDH counter-screen panel (AID 624167)
Settings: HeLa PEG-Prom luciferase reporter, overnight, CREF/GAPDH counter-screens, run 1, dose range 1, individual replicate IC50 per panel
Listed molecules paired with reported IC50
metric: IC50 (µM)

molecule	endpoint-value
COc1cc(OC)c(OC)cc1CCC(C)NCCC(c1ccccc1)c1ccccc1 (stereo unspecified)	20.3
COC(=O)c1ccc(CNC(=O)Cn2cnc3c(NCc4ccccc4)ncnc32)cc1	29.6
c1ccc(C(=NNc2nc3ccccc3s2)c2ccccn2)cc1	6.63
NCCCNc1nc(N)c([N+](=O)[O-])c(NC2CCCCC2)n1	10.7
COc1ccc2nc3n(c(=O)c2c1)-c1cc2ccccc2cc1C(=O)NC3Cc1ccc(O)cc1 (stereo unspecified)	21.2
Cc1ccc(-c2cc3c(N=O)c4ccccc4c-3n[nH]2)cc1	1.2
O=C(Nc1nc2cc3c(cc2s1)OCCO3)C1=COCCO1	0.431
CC1=CC2/C=C(\C)CCC(O)C(O)/C=C/C(=O)C23C(=O)NC(CC(C)C)C3C1C (stereo unspecified)	5.76
CC(C)(C)C(=O)Nc1ccc(NC(=O)c2ccco2)nc1	4.91
CC(C)(C)c1ccc(CN2N=Nc3ccccc3S2(=O)=O)cc1	30.6
Cc1cc(/C=c2/sc3nc4ccccc4n3c2=O)c(C)n1-c1ccccn1	21.7
C/C(=N\N=C(N)N)c1ccc(Cl)c(Cl)c1	20.3
COc1ccc(NC(=O)Nc2nc(C(N)C3CCCCC3)cs2)cc1 (stereo unspecified)	17.9
CCCN(CC(=O)Nc1ccccc1C)C(=O)CCl	56.1
O=C1c2cccc3cc([N+](=O)[O-])cc(c23)C(=O)N1CCN1CCCC1	6.2
Cc1ccc(C(C[N+](=O)[O-])Sc2ccc(N)cc2)cc1 (stereo unspecified)	9.59
